Target: Aminopeptidase N (Rattus norvegicus)
Sequence (P15684 whole entry): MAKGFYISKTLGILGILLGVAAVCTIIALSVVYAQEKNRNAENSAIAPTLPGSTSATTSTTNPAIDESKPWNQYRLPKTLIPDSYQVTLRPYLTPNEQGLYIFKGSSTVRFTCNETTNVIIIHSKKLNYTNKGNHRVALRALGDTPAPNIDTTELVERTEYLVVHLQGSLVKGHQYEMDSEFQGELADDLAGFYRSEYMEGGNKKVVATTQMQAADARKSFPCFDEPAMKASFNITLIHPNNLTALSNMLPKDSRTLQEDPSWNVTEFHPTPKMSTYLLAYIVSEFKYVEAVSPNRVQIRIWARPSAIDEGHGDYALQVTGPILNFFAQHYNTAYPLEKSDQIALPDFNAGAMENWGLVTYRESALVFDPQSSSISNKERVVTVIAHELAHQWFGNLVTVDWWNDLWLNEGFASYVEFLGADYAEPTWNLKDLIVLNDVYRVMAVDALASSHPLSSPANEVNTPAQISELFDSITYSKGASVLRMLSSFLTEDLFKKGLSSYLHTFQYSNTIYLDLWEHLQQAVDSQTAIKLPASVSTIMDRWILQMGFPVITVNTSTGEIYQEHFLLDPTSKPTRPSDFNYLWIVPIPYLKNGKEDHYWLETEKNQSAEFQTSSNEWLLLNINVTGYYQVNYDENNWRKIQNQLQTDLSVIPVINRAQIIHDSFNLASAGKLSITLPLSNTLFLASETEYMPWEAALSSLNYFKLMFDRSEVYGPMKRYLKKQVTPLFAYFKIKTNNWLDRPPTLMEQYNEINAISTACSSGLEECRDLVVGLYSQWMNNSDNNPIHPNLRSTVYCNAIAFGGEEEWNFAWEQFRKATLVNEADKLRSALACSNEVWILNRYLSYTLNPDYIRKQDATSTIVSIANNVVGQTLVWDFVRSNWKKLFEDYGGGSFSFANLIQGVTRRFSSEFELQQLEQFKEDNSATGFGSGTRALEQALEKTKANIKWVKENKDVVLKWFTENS
Test: Inhibitory potency against purified membrane bound rat brain Aminopeptidase M (AP-M) using [3H]Leu-enkephalin as substrate
READOUT: IC50 (µM)
# output: bare number, implied unit µM

Requested read-out: IC50. Entry: COC(=O)[C@H](Cc1c(Sc2ccccc2[N+](=O)[O-])[nH]c2ccccc12)NC(=O)C(O)[C@@H](N)CCCCN (stereo partly specified)
852

###

Kindly supply the reported Change values for the records listed here.
species on record: Mus musculus; assay: Analgesic response measured as percentage change in reaction time (dose 1 ug given intracervically) after 30 min in mice; assay type: functional

Requested read-out: Change. Entry: COC(=O)[C@@H](Cc1c(Sc2ccccc2[N+](=O)[O-])[nH]c2ccccc12)NC(=O)[C@H](O)[C@@H](N)CCCCN
21%

Requested read-out: Change. Entry: COC(=O)[C@H](Cc1c(Sc2ccccc2[N+](=O)[O-])[nH]c2ccccc12)NC(=O)[C@@H](N)CCCCN
<60%

Requested read-out: Change. Entry: COC(=O)[C@@H](Cc1c(Sc2ccccc2[N+](=O)[O-])[nH]c2ccccc12)NC(=O)C(O)[C@H](N)CCCCN (stereo not given in full)
13%

Requested read-out: Change. Entry: COC(=O)[C@H](Cc1c(Sc2ccccc2[N+](=O)[O-])[nH]c2ccccc12)NC(=O)[C@@H](O)[C@H](N)CCCCN
63%

Requested read-out: Change. Entry: COC(=O)[C@H](Cc1c(Sc2ccccc2[N+](=O)[O-])[nH]c2ccccc12)NC(=O)C(O)[C@@H](N)CCCCN (stereo not given in full)
15%

// data source = ChEMBL document CHEMBL1125394
